Target System: UT receptors in HSMM (Human Skeletal Muscle Myoblasts) (Homo sapiens, UniProt Q9UKP6)
Sequence (Q9UKP6 whole entry): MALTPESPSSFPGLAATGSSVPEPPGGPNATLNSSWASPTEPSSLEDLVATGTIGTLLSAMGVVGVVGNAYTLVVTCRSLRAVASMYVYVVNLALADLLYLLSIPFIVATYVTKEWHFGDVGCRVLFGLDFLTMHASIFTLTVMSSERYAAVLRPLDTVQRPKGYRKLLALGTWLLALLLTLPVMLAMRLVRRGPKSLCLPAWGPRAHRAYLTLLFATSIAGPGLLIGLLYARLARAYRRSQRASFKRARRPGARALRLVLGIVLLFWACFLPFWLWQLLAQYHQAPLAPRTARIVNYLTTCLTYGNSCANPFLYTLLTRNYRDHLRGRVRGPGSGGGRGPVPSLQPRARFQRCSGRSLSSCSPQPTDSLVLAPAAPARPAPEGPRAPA
Assay Info: Human Radioligand Binding Assay ((^125I)-U-II binding to intact HSMM)
Assay Context: read-out: Human UII Average Binding Ki; intact HSMM, 0.150 nM (^125I)-U-II, 3 h, 25° C.
The entries below come with measured pKi values attached.
Reminder that pKi means the negative base-10 logarithm of the concentration expressed in mol/L.

Some solved cases for reference:
CCN1CCN(c2cccc3c2CN([C@H](CCCNS(=O)(=O)c2cccs2)c2ccc(OC)c(OC)c2)C3=O)CC1 ... 8.40
COc1ccc([C@@H](CCCNS(=O)(=O)c2cccs2)N2Cc3c(cccc3N3CCN(C(C)C)CC3)C2=O)cc1OC ... 8.40
COc1ccc([C@@H](CCCN(C)S(=O)(=O)c2cccs2)N2Cc3c(cccc3N3CCN(C4CCC4)CC3)C2=O)cc1OC ... 7.36
COc1ccc([C@@H](CCCN(C)S(=O)(=O)c2cccs2)N2Cc3c(cccc3N3CCNCC3)C2=O)cc1OC ... 7.31
CCN1CCN(c2cccc3c2CN([C@H](CCCNC(=O)c2c(C)n[nH]c2C)c2ccc(OC)c(OC)c2)C3=O)CC1 ... 7.96
COc1ccc([C@@H](CCCN(C)S(=O)(=O)c2cccs2)N2Cc3c(cccc3N3CCN(C4CC4)CC3)C2=O)cc1OC ... 7.23
CCN1CCN(c2cccc3c2CN([C@H](CCCNCc2cccs2)c2ccc(OC)c(OC)c2)C3=O)CC1 ... 7.74
COc1ccc([C@@H](CCCN(C)S(=O)(=O)c2cccs2)N2Cc3c(cccc3N3CCN(C(C)C)CC3)C2=O)cc1OC ... 7.96

We now examine a further compound.
Return the recorded pKi value; entry: "CCN1CCN(c2cccc3c2CN([C@H](CCCNC(=O)c2cccs2)c2ccc(OC)c(OC)c2)C3=O)CC1"
7.74
